Source: patent US11685732B2

target.of.assay: KAT-6A (Homo sapiens (Human), UniProt Q92794)
Sequence (Q92794 other isoform, or with tags, fused parts or gaps): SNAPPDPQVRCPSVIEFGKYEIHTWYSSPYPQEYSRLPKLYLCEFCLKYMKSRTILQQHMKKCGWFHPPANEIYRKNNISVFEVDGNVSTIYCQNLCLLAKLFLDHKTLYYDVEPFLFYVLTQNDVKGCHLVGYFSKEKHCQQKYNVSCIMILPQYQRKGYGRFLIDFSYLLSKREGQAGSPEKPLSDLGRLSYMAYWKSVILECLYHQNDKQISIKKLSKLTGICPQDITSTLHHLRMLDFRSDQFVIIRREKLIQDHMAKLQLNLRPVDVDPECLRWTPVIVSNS
run.description: KAT-6A biochemical inhibition assay (SAMDI mass spectrometry)
pIC50: −log10 of the molar value.
readout.kind: pIC50

// worked examples, pIC50 included
{"compound": "Cn1cnc(-c2cc(Cl)c(F)c(C(=O)NNS(=O)(=O)CC3CCCCC3O)c2)c1 (stereo not drawn) [Compound I-384]", "target.of.assay": "KAT-6A (Homo sapiens (Human), UniProt Q92794)", "reported": "4.30 to 5.00"}
{"compound": "CCn1cc(-c2cc(C)c(F)c(C(=O)NNS(=O)(=O)C3CCCCC3)c2)cn1 [Compound I-154]", "target.of.assay": "KAT-6A (Homo sapiens (Human), UniProt Q92794)", "reported": "< 4.00"}
{"compound": "Cn1cnc(-c2cc(Cl)c(F)c(C(=O)NNS(=O)(=O)C[C@H]3CCC[C@H](O)C3)c2)c1 [Compound I-306]", "target.of.assay": "KAT-6A (Homo sapiens (Human), UniProt Q92794)", "reported": "> 5.00"}

Name the recorded pIC50 for Cn1cnc(-c2cc(Cl)c(F)c(C(=O)NNS(=O)(=O)C[C@H]3CCC[C@@H](N)C3)c2)c1 [Compound I-253] .
4.30 to 5.00

Name the recorded pIC50 for CN(CC(F)(F)F)C1CCCC(CS(=O)(=O)NNC(=O)c2cc(-c3cn(C)cn3)cc(Cl)c2F)C1 (stereo not drawn) [Compound I-473] .
4.30 to 5.00

Name the recorded pIC50 for CCS(=O)(=O)N1CC(CS(=O)(=O)NNC(=O)c2cc(-c3cn(C)cn3)cc(Cl)c2F)C1 [Compound I-164] .
> 5.00

Name the recorded pIC50 for COCc1nc(-c2cc(Cl)c(F)c(C(=O)NNS(=O)(=O)CC3CCCCC3)c2)cn1C [Compound I-226] .
4.30 to 5.00

Name the recorded pIC50 for Cc1ncc(-c2cc(Cl)c(F)c(C(=O)NNS(=O)(=O)CC3CCCCC3)c2)n1C [Compound I-29] .
< 4.00

Name the recorded pIC50 for CN1CCN(C2CCCC(CS(=O)(=O)NNC(=O)c3cc(-c4cn(C)cn4)cc(Cl)c3F)C2)C1=O (stereo not drawn) [Compound I-281] .
> 5.00

Name the recorded pIC50 for CCNC(=O)N(C)[C@H]1CC[C@@H](CS(=O)(=O)NNC(=O)c2cc(-c3cn(C)cn3)cc(Cl)c2F)CC1 [Compound I-363] .
4.30 to 5.00

Name the recorded pIC50 for COc1ccc(CNC(=O)N[C@H]2C[C@@H](CS(=O)(=O)NNC(=O)c3cc(-c4cn(C)cn4)cc(Cl)c3F)C2)cc1 [Compound I-213] .
> 5.00
